Record form. Attribute: pIC50. Fill in for each entry.
- target.or.system: µ opioid receptor (MOR) (Rattus norvegicus, UniProt P33535)
- Construct: from tissue; host or cells: rat brain (membrane fractions of homogenate)
- Sequence (P33535 whole entry): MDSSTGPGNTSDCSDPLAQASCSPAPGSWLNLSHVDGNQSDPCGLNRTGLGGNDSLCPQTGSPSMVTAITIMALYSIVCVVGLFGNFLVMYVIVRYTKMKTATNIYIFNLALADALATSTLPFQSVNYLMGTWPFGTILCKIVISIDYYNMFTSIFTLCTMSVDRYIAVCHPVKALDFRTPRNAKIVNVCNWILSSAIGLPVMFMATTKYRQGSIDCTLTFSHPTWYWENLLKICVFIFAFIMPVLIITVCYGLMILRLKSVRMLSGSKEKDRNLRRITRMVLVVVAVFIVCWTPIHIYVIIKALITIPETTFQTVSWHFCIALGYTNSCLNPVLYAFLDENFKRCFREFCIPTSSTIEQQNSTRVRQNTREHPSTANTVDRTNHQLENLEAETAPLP
- measurement.protocol: competitive radioligand binding, [3H]DAMGO displacement in rat brain homogenate
Where a SMILES comes first, the peptide text is derived from it. [ ]: non-standard residue; d: D form. The star is where a group is joined. X3 = FC(F)(F)c1cc(C=NN*)cc(C(F)(F)F)c1
Give bare numbers, as −log10 of the molar value.

compound | result
C[C@@H](NC(=O)[C@@H](N)Cc1ccc(O)cc1)C(=O)N[C@@H](Cc1ccccc1)C(=O)N[C@@H](Cc1ccccc1)C(=O)NN=Cc1cc(C(F)(F)F)cc(C(F)(F)F)c1 [3a, H-Tyr-D-Ala-Phe-Phe-NH-N=CH-3,5-(CF3)2Ph] (H-Y[dA]FF-X3) | 7.04

Turning to the following compound.
Input line: Need pIC50, item N[C@@H](Cc1ccc(O)cc1)C(=O)N1CCC[C@H]1C(=O)N[C@@H](Cc1ccccc1)C(=O)NN=Cc1cc(C(F)(F)F)cc(C(F)(F)F)c1
Output line: 6.95

* * *

Give IC50 for every item shown.
- target.or.system: δ opioid receptor (DOR) (Rattus norvegicus)
- Construct: from tissue; host or cells: rat brain (membrane fractions of homogenate)
- Sequence (P33533 whole entry): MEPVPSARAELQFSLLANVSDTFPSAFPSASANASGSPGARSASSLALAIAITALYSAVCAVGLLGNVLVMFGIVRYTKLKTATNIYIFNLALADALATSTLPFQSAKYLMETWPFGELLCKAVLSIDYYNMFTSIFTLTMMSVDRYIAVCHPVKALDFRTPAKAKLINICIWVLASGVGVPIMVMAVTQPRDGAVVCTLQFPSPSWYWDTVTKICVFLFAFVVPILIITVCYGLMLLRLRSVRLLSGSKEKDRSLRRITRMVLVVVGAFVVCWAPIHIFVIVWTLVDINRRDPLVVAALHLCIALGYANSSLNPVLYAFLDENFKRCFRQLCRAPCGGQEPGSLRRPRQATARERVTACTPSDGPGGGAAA
- measurement.protocol: competitive radioligand binding, [3H][Ile5,6]Deltorphin II displacement in rat brain homogenate
Where a SMILES comes first, the peptide text is derived from it. [ ]: non-standard residue; d: D form. The star is where a group is joined. X4 = O=C(NN*)c1cc(C(F)(F)F)cc(C(F)(F)F)c1; X3 = FC(F)(F)c1cc(C=NN*)cc(C(F)(F)F)c1

Use these answered entries as a reference point.
compound | result
C[C@@H](NC(=O)[C@@H](N)Cc1ccc(O)cc1)C(=O)N[C@@H](Cc1ccccc1)C(=O)N[C@@H](Cc1ccccc1)C(=O)NN=Cc1cc(C(F)(F)F)cc(C(F)(F)F)c1 [3a, H-Tyr-D-Ala-Phe-Phe-NH-N=CH-3,5-(CF3)2Ph] (H-Y[dA]FF-X3) | > 1 µM
C[C@@H](NC(=O)[C@@H](N)Cc1ccc(O)cc1)C(=O)NCC(=O)N[C@@H](Cc1ccccc1)C(=O)NNC(=O)NN=Cc1cc(C(F)(F)F)cc(C(F)(F)F)c1 | 0.044 µM
N[C@@H](Cc1ccc(O)cc1)C(=O)N1CCC[C@H]1C(=O)N[C@@H](Cc1ccccc1)C(=O)NN=Cc1cc(C(F)(F)F)cc(C(F)(F)F)c1 | > 1 µM
N[C@@H](Cc1ccc(O)cc1)C(=O)N1CCC[C@H]1C(=O)N[C@@H](Cc1ccccc1)C(=O)N[C@@H](Cc1ccccc1)C(=O)NN=Cc1cc(C(F)(F)F)cc(C(F)(F)F)c1 | > 1 µM

Shift focus to the following entry.
Input line: Consider the compound shown here: C[C@@H](NC(=O)[C@@H](N)Cc1ccc(O)cc1)C(=O)N[C@@H](Cc1ccccc1)C(=O)N[C@@H](Cc1ccccc1)C(=O)NNC(=O)c1cc(C(F)(F)F)cc(C(F)(F)F)c1 [3b] (H-Y[dA]FF-X4) What is its recorded IC50?
Output line: > 1 µM

* * *

- target.or.system: δ opioid receptor (DOR) (Rattus norvegicus)
- Construct: from tissue; host or cells: rat brain (membrane fractions of homogenate)
- measurement.protocol: competitive radioligand binding, [3H][Ile5,6]Deltorphin II displacement in rat brain homogenate
Where a SMILES comes first, the peptide text is derived from it. [ ]: non-standard residue; d: D form. The star is where a group is joined. X4 = O=C(NN*)c1cc(C(F)(F)F)cc(C(F)(F)F)c1; X3 = FC(F)(F)c1cc(C=NN*)cc(C(F)(F)F)c1
observed.property: pIC50
Numbers only, as −log10 of the molar value.

compound | result
C[C@@H](NC(=O)[C@@H](N)Cc1ccc(O)cc1)C(=O)NCC(=O)N[C@@H](Cc1c[nH]c2ccccc12)C(=O)NN=Cc1cc(C(F)(F)F)cc(C(F)(F)F)c1 [2a, H-Tyr-D-Ala-Gly-Trp-NH-N=CH-3,5-(CF3)2Ph] (H-Y[dA]GW-X3) | 6.04
C[C@@H](NC(=O)[C@@H](N)Cc1ccc(O)cc1)C(=O)N[C@@H](Cc1c[nH]c2ccccc12)C(=O)NN=Cc1cc(C(F)(F)F)cc(C(F)(F)F)c1 | 6.21
C[C@@H](NC(=O)[C@@H](N)Cc1ccc(O)cc1)C(=O)NCC(=O)N[C@@H](Cc1c[nH]c2ccccc12)C(=O)NNC(=O)c1cc(C(F)(F)F)cc(C(F)(F)F)c1 [2b] (H-Y[dA]GW-X4) | 6.33
C[C@@H](NC(=O)[C@@H](N)Cc1ccc(O)cc1)C(=O)NCC(=O)N[C@@H](Cc1ccccc1)C(=O)NNC(=O)c1cc(C(F)(F)F)cc(C(F)(F)F)c1 | 6.38

Shift focus to the following entry.
Input line: pIC50 lookup needed for C[C@@H](NC(=O)[C@@H](N)Cc1ccc(O)cc1)C(=O)NCC(=O)N[C@@H](Cc1ccccc1)C(=O)NNC(=O)Cc1cc(C(F)(F)F)cc(C(F)(F)F)c1 , thanks.
Output line: 6.79
